Provenance of the data: patent US20250136687A1

molecular target: T1, human CD3ε/δ-His (human, UniProt P07766 23-126; P04234 22-105); test: ELISA, coated antigen
T1 construct: Bought recombinant heterodimer with His tag; also called human CD3ε/δ protein
T1 sequence (P07766 23-126, stated change not applied, form in doubt, chain 1 of 2): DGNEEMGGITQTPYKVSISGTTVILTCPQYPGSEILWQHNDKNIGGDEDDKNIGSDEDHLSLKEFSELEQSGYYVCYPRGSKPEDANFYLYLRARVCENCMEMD
T1 sequence (P04234 22-105, stated change not applied, form in doubt, chain 2 of 2): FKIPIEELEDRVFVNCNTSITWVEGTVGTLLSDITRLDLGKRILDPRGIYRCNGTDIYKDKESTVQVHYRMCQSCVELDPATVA
OUTCOME MEASURE: max-OD450 (OD450)
The answer is to be given in OD450; state only the numeric part.

Prompt line: Param item = 40G5c-hIgG1 (antibody, V domains shown) VH: EVQLVQSGAEVKKPGASVKVSCKASGYTFTNYYIHWVRQAPGQGLEWIGWIYPGDGNTKYNEKFKGRATLTADTSTSTAYLELSSLRSEDTAVYYCARDSYSNYYFDYWGQGTLVTVSS VL: DIVMTQSPDSLAVSLGERATINCKSSQSLLNSRTRKNYLAWYQQKPGQPPKLLIYWASTRESGVPDRFSGSGSGTDFTLTISSLQAEDVAVYYCTQSFILRTFGQGTKVEIKR ; retrieve measured max-OD450.
Response line: 2.83

Prompt line: Can you handle 8-18.1-H1-L2 humanized antibody (antibody, human IgG1, kappa, V domains shown) VH: EVQLVQSGAEVKKPGASVKVSCKASGYTFTMNTMHWVRQAPGQRLEWMGYINPYSGYTKYNQIFKDRVTITADKSASTAYMELSSLRSEDTAVYYCLRGGEGVWGQGTTVTVSS VL: DVVMTQSPLSLPVTLGQPASISCKSSQSLLDSDGKTYLNWLQQRPGQSPRRLIYLVSELGSGVPDRFSGSGSGTDFTLKISRVEAEDVGVYYCWQGTHFPRTFGGGTKVEIKR next?
Response line: 3.16

Prompt line: Can you handle 7-35.6-H2-L3 humanized antibody (antibody, human IgG1, lambda, V domains shown) VH: EVQLVESGGGLVQPGGSLKLSCAASGFTFNTYAMNWVRQASGKGLEWVGRIRSKINNYATYYGDSVKDRFTISRDDSKNTFYLQMNSLKTEDTAVYYCVIHENYGSISWFAYWGQGTLVTVSS VL: ETVVTQEPSLTVSPGGTVTLTCRSSTGAVTTSNYANWVQQKPGQAFTGLIGGTNNRAPWTPARFSGSLLGGKAALTLSGVQPEDEAEYYCALWYSNHWVFGGGTKLTVLG next?
Response line: 3.15

Prompt line: Can you handle 5-7.13-H1a-L2 humanized antibody (antibody, human IgG1, kappa, V domains shown) VH: EVQLVQSGAEVKKPGASVKVSCKASGYTFTSYWVHWVRQAPGQRLEWMGNINPSDGVTNYNEKFKSRVTITVDKSASTAYMELSSLRSEDTAVYYCTRDAYGQYYFDNWGQGTTVTVSS VL: DIVMTQTPLSLPVTPGEPASISCKSSQSLLNSRTRKNYLAWYLQKPGQSPQLLIYWASVRDSGVPDRFSGSGSGTDFTLKISRVEAEDVGVYYCIQSYYLRTFGGGTKVEIKR next?
Response line: 3.01
